PROCEDURE_DETAILS: Inhibition of NS5A in HCV genotype 4a ED43 infected in human HuH7 transient chimeric replicon cells assessed as reduction in viral replication after 3 days by luciferase reporter gene assay
pEC50: −log10 of the molar value.

SMILES_REPRESENTATION	pEC50
COC(=O)N[C@H](C(=O)N1CCC[C@H]1c1ncc(-c2ccc3c(c2)COc2cc4c(ccc5nc([C@@H]6CCCN6C(=O)[C@H](NC(=O)OC)c6ccccc6)[nH]c54)cc2-3)[nH]1)C(C)C	11.10
COC[C@H]1C[C@@H](c2nc3ccc4cc5c(cc4c3[nH]2)OCc2cc(-c3cnc([C@@H]4C[C@H](C)CN4C(=O)[C@@H](NC(=O)OC)C(C)C)[nH]3)ccc2-5)N(C(=O)[C@@H](NC(=O)OC)C(C)C)C1	10.66
COC(=O)N[C@H](C(=O)N1CCC[C@H]1c1ncc(-c2cc3c4c(c2)OCc2cc(-c5cnc([C@@H]6CCCN6C(=O)[C@@H](NC(=O)OC)C(C)C)[nH]5)cc(c2-4)OC3)[nH]1)C(C)C	10.54
COC[C@H]1C[C@@H](c2nc3ccc4cc5c(cc4c3[nH]2)OCc2cc(-c3cnc([C@@H]4CCCN4C(=O)[C@@H](NC(=O)OC)C(C)C)[nH]3)ccc2-5)N(C(=O)[C@@H](NC(=O)OC)C(C)C)C1	10.85
COC(=O)N[C@H](C(=O)N1CCC[C@H]1c1nc2ccc3cc4c(cc3c2[nH]1)OCc1cc(-c2cnc([C@@H]3CCCN3C(=O)[C@H](NC(=O)OC)c3ccccc3)[nH]2)ccc1-4)C(C)C	10.96

Source listed as BindingDB's records for doi:10.1016/j.bmcl.2019.04.027.
